- assay_info: Cytotoxic activity on hepatoblastoma cell line HepG2
- Assay type: cell-based, human
- protocol_conditions: human, HepG2 cells
metric: GI50 (µM)
The response must be a number in µM with no trailing unit.

**Q:** Would you kindly share the measured GI50 for N#Cc1ccc(N2C(=O)[C@](Cc3ccc(F)cc3)(c3ccccc3)NC2=S)cc1C(F)(F)F [(S)-37] ?
**A:** 7.4

---

- Test system: HepG2 cells
- assay_info: Cytotoxic activity on hepatoblastoma cell line HepG2
- Assay type: cell-based, human
- protocol_conditions: up to highest concentration tested
metric: potential hepato-toxicity

**Q:** Would you kindly share the measured potential hepato-toxicity for CS(=O)(=O)N[C@@](Cc1ccccc1)(CS(=O)(=O)c1ccc(F)cc1)C(=O)Nc1ccc(C#N)c(C(F)(F)F)c1 [(R)-10] ?
**A:** negligible toxicity

**Q:** Would you kindly share the measured potential hepato-toxicity for C[C@](N)(CS(=O)(=O)c1ccc(F)cc1)C(=O)Nc1ccc(C#N)c(C(F)(F)F)c1 [(R)-23] ?
**A:** negligible toxicity

**Q:** Would you kindly share the measured potential hepato-toxicity for CC(C)(C)S(=O)(=O)N[C@@](C)(CS(=O)(=O)c1ccc(F)cc1)C(=O)Nc1ccc(C#N)c(C(F)(F)F)c1 [(R)-22] ?
**A:** negligible toxicity
